# Test: Pharmacokinetics of sonidegib in plasma
# Format: in vivo, human
# Measurement conditions: human, plasma, oral, 400 mg, T max, pharmacokinetic run-in (single dose), group 1, 400 mg, n = 12, median
Property name: Tmax (h)
One number for each entry, in h.

Tmax in this record for Cc1c(C(=O)Nc2ccc(N3C[C@@H](C)O[C@@H](C)C3)nc2)cccc1-c1ccc(OC(F)(F)F)cc1 : 3

* * *

# Test: Pharmacokinetics of sonidegib in plasma
# Assay type: in vivo, human
# Measurement conditions: human, plasma, oral, 400 mg, AUC0–24, pharmacokinetic run-in (single dose), group 2, 400 mg, n = 12, geometric mean (% CV)
Property name: AUC(0-t) (ng·h/mL)
Give bare numbers, in ng·h/mL.

Just so you know, measured AUC(0-t) for Cc1c(C(=O)Nc2ccc(N3C[C@@H](C)O[C@@H](C)C3)nc2)cccc1-c1ccc(OC(F)(F)F)cc1 came out at 2890

* * *

# Test: Pharmacokinetics of sonidegib in plasma
# Format: in vivo, human
# Measurement conditions: human, plasma, oral, 600 mg, AUC0–24, pharmacokinetic run-in (single dose), group 2, 600 mg, n = 8, geometric mean (% CV)
Property name: AUC(0-t) (ng·h/mL)
Numbers only, in ng·h/mL.

Record Cc1c(C(=O)Nc2ccc(N3C[C@@H](C)O[C@@H](C)C3)nc2)cccc1-c1ccc(OC(F)(F)F)cc1 [Sonidegib] , field AUC(0-t): 3420

* * *

# Test: Pharmacokinetics of sonidegib in plasma
# Type: in vivo, human
# Measurement conditions: human, plasma, oral, 600 mg, AUC0–24, pharmacokinetic run-in (single dose), group 1, 600 mg, n = 9, geometric mean (% CV)
Property name: AUC(0-t) (ng·h/mL)
Numbers only, in ng·h/mL.

Form field AUC(0-t), entry Cc1c(C(=O)Nc2ccc(N3C[C@@H](C)O[C@@H](C)C3)nc2)cccc1-c1ccc(OC(F)(F)F)cc1 [Sonidegib] : 3330

* * *

# Test: Pharmacokinetics of sonidegib in plasma
# Assay type: in vivo, human
# Measurement conditions: human, plasma, oral, 400 mg, T max, cycle 1, day 15, group 1, 400 mg q.d., n = 12, median
Property name: Tmax (h)
Answers are plain numbers, in h.

For this molecule ( Cc1c(C(=O)Nc2ccc(N3C[C@@H](C)O[C@@H](C)C3)nc2)cccc1-c1ccc(OC(F)(F)F)cc1 ), measured Tmax is 2

* * *

# Test: Pharmacokinetics of sonidegib in plasma
# Assay type: in vivo, human
# Measurement conditions: human, plasma, oral, 600 mg, T max, cycle 1, day 15, group 1, 600 mg q.d., n = 8, median
Property name: Tmax (h)
Numbers only, in h.

So for Cc1c(C(=O)Nc2ccc(N3C[C@@H](C)O[C@@H](C)C3)nc2)cccc1-c1ccc(OC(F)(F)F)cc1 [Sonidegib] , the logged Tmax turned out to be 2

* * *

# Test: Pharmacokinetics of sonidegib in plasma
# Type: in vivo, human
# Measurement conditions: human, plasma, oral, 800 mg, AUC0–24, pharmacokinetic run-in (single dose), group 2, 800 mg, n = 4, geometric mean (% CV)
Property name: AUC(0-t) (ng·h/mL)
Give bare numbers, in ng·h/mL.

Reported AUC(0-t) for Cc1c(C(=O)Nc2ccc(N3C[C@@H](C)O[C@@H](C)C3)nc2)cccc1-c1ccc(OC(F)(F)F)cc1 was 3650

* * *

# Test: Pharmacokinetics of sonidegib in plasma
# Assay type: in vivo, human
# Measurement conditions: human, plasma, oral, 600 mg, T max, pharmacokinetic run-in (single dose), group 2, 600 mg, n = 8, median
Property name: Tmax (h)
Numbers only, in h.

Short answer for Cc1c(C(=O)Nc2ccc(N3C[C@@H](C)O[C@@H](C)C3)nc2)cccc1-c1ccc(OC(F)(F)F)cc1 : Tmax was 3

* * *

# Test: Pharmacokinetics of sonidegib in plasma
# Format: in vivo, human
# Measurement conditions: human, plasma, oral, 800 mg, C max, cycle 1, day 15, group 2, 800 mg q.d., n = 2, geometric mean (% CV)
Property name: Cmax
Note: state the figure and append the unit.

Per the record, Cc1c(C(=O)Nc2ccc(N3C[C@@H](C)O[C@@H](C)C3)nc2)cccc1-c1ccc(OC(F)(F)F)cc1 has Cmax of 1230 ng/mL

* * *

# Test: Pharmacokinetics of sonidegib in plasma
# Assay type: in vivo, human
# Measurement conditions: human, plasma, oral, 400 mg, AUC0–24, pharmacokinetic run-in (single dose), group 1, 400 mg, n = 12, geometric mean (% CV)
Property name: AUC(0-t) (ng·h/mL)
One number for each entry, in ng·h/mL.

Sample Cc1c(C(=O)Nc2ccc(N3C[C@@H](C)O[C@@H](C)C3)nc2)cccc1-c1ccc(OC(F)(F)F)cc1 [Sonidegib] ; AUC(0-t) observed: 2010

* * *

# Test: Pharmacokinetics of sonidegib in plasma
# Type: in vivo, human
# Measurement conditions: human, plasma, oral, T max, after a single dose in run-in period and repeated dosing in cycle 1 day 15, both groups
Property name: Tmax

Cc1c(C(=O)Nc2ccc(N3C[C@@H](C)O[C@@H](C)C3)nc2)cccc1-c1ccc(OC(F)(F)F)cc1 yielded Tmax of 2 to 4 h

// data source = paper PMC5084670
